Would you mind telling me the reported IC50 of each entry?
Tested on: U87MG pLVX-IDH2 R140Q-neo cells
Assay: U87MG pLVX-IDH2 R140Q-neo cell based assay, 2-HG in media by LC-MS at 48 hours
Conditions: Homo sapiens, U-87 MG
Description: U87MG pLVX-IDH2 R140Q-neo cells are grown in T125 flasks in DMEM containing 10% FBS, 1× penicillin/streptomycin and 500 μg/mL G418. They are harvested by trypsin and seeded into 96 well white bottom plates at a density of 5000 cell/well in 100 μl/well in DMEM with 10% FBS. […] At 48 hours, 100 ul of media is removed from each well and analyzed by LC-MS for 2-HG concentrations. […] The plate is then read for luminescence with an integration time of 500 ms to determine compound effects on growth inhibition.

Query string: Recorded IC50 of CC(C)Nc1nc(Nc2ccnc(C(F)(F)F)c2)nc(-c2cccc(C(C)O)c2)n1 (stereo not drawn) [Compound 663] , please.
Result string: < 100 nM

Query string: What do you have for CC(C)(O)CNc1nc(Nc2cc(F)cc(F)c2)nc(-c2cccc(N)n2)n1 [Compound 691] ?
Result string: < 100 nM

Query string: What do you have for CC(C)(O)CNc1nc(Nc2ccnc(F)c2)nc(-c2cccc(Cl)n2)n1 [Compound 368] ?
Result string: < 100 nM

Query string: What do you have for CC(C)Nc1nc(Nc2cccc(S(=O)(=O)NCC(F)(F)F)c2)nc(-c2cccc(Cl)n2)n1 [Compound 518] ?
Result string: < 100 nM

Query string: What do you have for CC(C)Nc1nc(Nc2cccc(S(=O)(=O)C(C)C)c2)nc(-c2ccccc2)n1 [Compound 206] ?
Result string: 100 to 1000 nM

Query string: What do you have for CC(C)(C)Nc1nc(Nc2ccnc(C(F)(F)F)c2)nc(-c2cccc(C(F)(F)F)n2)n1 [Compound 602] ?
Result string: < 100 nM

Query string: What do you have for CC(C)(O)CNc1nc(Nc2cnc(F)c(Cl)c2)nc(-c2cccc(C(F)(F)F)n2)n1 [Compound 670] ?
Result string: < 100 nM

Query string: What do you have for COC(=O)c1cc(Nc2nc(NC(C)C)nc(-c3ccccc3)n2)ccn1 [Compound 346] ?
Result string: 100 to 1000 nM

Query string: What do you have for CC(C)Nc1nc(Nc2cncnc2)nc(-c2cccc(Cl)n2)n1 [Compound 353] ?
Result string: < 100 nM

Query string: What do you have for CC(C)Nc1nc(Nc2cccc(S(C)(=O)=O)c2)nc(-c2nc(F)ccc2F)n1 [Compound 454] ?
Result string: 100 to 1000 nM

Query string: What do you have for CC(C)Nc1nc(Nc2ccncc2)nc(-c2ccccc2F)n1 [Compound 227] ?
Result string: < 100 nM

Query string: What do you have for CC(C)Nc1nc(Nc2ccnc(CF)c2)nc(-c2cccc(C(F)(F)F)n2)n1 [Compound 676] ?
Result string: < 100 nM

Query string: What do you have for CC(C)Nc1nc(Nc2cncs2)nc(-c2ccccc2)n1 [Compound 313] ?
Result string: < 100 nM

Query string: What do you have for CC(C)(C)C(=O)Nc1nc(Nc2ccccc2)nc(-c2ccccc2)n1 [Compound 183] ?
Result string: < 100 nM

Query string: What do you have for COc1cc(Cl)cc(-c2nc(Nc3cc(F)cc(F)c3)nc(NC(C)C)n2)n1 [Compound 486] ?
Result string: 100 to 1000 nM

Query string: What do you have for Fc1ccc(Nc2nc(NC3COC3)nc(-c3ccccc3F)n2)cn1 [Compound 626] ?
Result string: 100 to 1000 nM

Query string: What do you have for FC(F)(F)CCNc1nc(Nc2ccncc2)nc(-c2ccccc2)n1 [Compound 263] ?
Result string: 100 to 1000 nM

Query string: What do you have for CC(C)C(C)Nc1nc(Nc2ccncc2)nc(-c2ccccc2)n1 (stereo not drawn) [Compound 213] ?
Result string: < 100 nM
